system: MDA-MB-435; test: NCI tumour cell line growth inhibition, 48 h
Calls of active or inactive are those of the source. No stated cut-off is given here; in the data, active = GI50 up to about 1.1 µM and inactive = higher. Positions of bridges follow the written chain, without caps; N, C: chain ends. Non-standard residues stand in square brackets, D forms with d. Residues, ends and D or L forms follow the SMILES beside them. ξ: configuration not given here. *: point of attachment. X28 = O=C(/C=C/C=C/C=C/C=C/C=C/C(=O)*)NC1=C(O)CCC1=O; Pro(4R-Me) = C[C@H]1CN[C@H](C(=O)O)C1; NMeA = CN[C@@H](C)C(=O)O; ξF = NC(Cc1ccccc1)C(=O)O; ξA = CC(N)C(=O)O
Measure: GI50

Exercise: Entry Cc1n[nH]c(=O)n1Nc1ccccc1 has what GI50?
Solution: > 100 µM (inactive)

Exercise: Let us now turn to Cc1cccc(C)c1Nc1nc(C)c(C(=O)CC(=O)C(=O)Nc2c(C(C)C)cccc2C(C)C)s1
Solution: > 100 µM (inactive)

Exercise: Let us now turn to CC1NC(=O)[C@H](C)N(C)C(=O)[C@@H]2CCCN2C(=O)[C@@H](NC(=O)C(Cc2ccccc2)NC(=O)/C=C/C=C/C=C/C=C/C=C/C(=O)NC2=C(O)CCC2=O)COC(=O)[C@@H]2C[C@@H](C)CN2C1=O (stereo partly drawn) (X28-[ξF]SP[NMeA][ξA][Pro(4R-Me)]; ester 2-C)
Solution: > 100 µM (inactive)

Exercise: Let us now turn to O=C(O)C1C2C=CC(O2)C1C(=O)NCc1cccnc1 (stereo not drawn)
Solution: > 100 µM (inactive)

Exercise: Let us now turn to COC(=O)c1ccccc1C1CN=NC12Cc1ccc(C)c(C)c1C2=O (stereo not drawn)
Solution: 64.3 µM (inactive)

Exercise: Let us now turn to CC(C)=CCC/C(=C\CC/C(=C\CCc1ccoc1)C(=O)O)C(=O)O
Solution: > 100 µM (inactive)

Exercise: Let us now turn to Cc1cc(S(=O)(=O)NC2=Nc3cccc4cccc(c34)N2)c(S)cc1Cl
Solution: 83.4 µM (inactive)

Exercise: Let us now turn to C=CCc1c(C)nc(C)nc1N/N=C/C=C/c1ccccc1
Solution: 23.6 µM (inactive)

---

system: SR; experiment: NCI tumour cell line growth inhibition, 48 h
Activity calls are given as the source filed them. Cut-off read from the data, not from the text of the source: active = GI50 up to about 1.1 µM and inactive = higher.
What GI50 was measured for each of the following?

Exercise: Entry O=C1c2cc3c(cc2CC1Cc1ccc2c(c1)CCC2)CCC3 (centres undefined) has what GI50?
Solution: 29.9 µM (inactive)

Exercise: Let us now turn to CC(=O)c1c2c(cc3c1CC1(C3)Cc3ccc4c(c3C1=O)CCC4)CCC2 (centres undefined)
Solution: 4.61 µM (inactive)

Exercise: Let us now turn to CC(=O)OC1CCn2nnc(CO[Si](C)(C)C(C)(C)C)c21 (centres undefined)
Solution: > 100 µM (inactive)

Exercise: Let us now turn to C[C@H]1C2Cc3cc(N)ccc3[C@@]1(C)CCN2CCc1ccccc1
Solution: 19.3 µM (inactive)

Exercise: Let us now turn to O=C1[C@@H]2C(c3ccccc3F)=NO[C@@H]2C(=O)N1c1ccc(Cc2ccc(N3C(=O)[C@H]4C(c5ccccc5F)=NO[C@H]4C3=O)cc2)cc1
Solution: 34.1 µM (inactive)

Exercise: Let us now turn to CC1(C)C[C@H]2[C@H](O)C(CO)=C3C(=O)[C@@H](O)[C@]3(C)[C@H]2C1
Solution: 50.2 µM (inactive)

Exercise: Let us now turn to CC(=O)OCOC(=O)CN(CC(=O)OCOC(C)=O)Cc1cc2c(cc1OC(C)=O)Oc1cc(OC(C)=O)c(CN(CC(=O)OCOC(C)=O)CC(=O)OCOC(C)=O)cc1C21OC(=O)c2ccccc21
Solution: 0.016 µM (active)

Exercise: Let us now turn to O=C1CC2CCN(C(=O)c3ccccc3)CC2CCN1 (centres undefined)
Solution: > 100 µM (inactive)

Exercise: Let us now turn to CO/N=[N+](\[O-])NC(C)C
Solution: > 100 µM (inactive)

Exercise: Let us now turn to NC(=O)c1cccc(OCC(O)CO)c1 (centres undefined)
Solution: > 100 µM (inactive)

Exercise: Let us now turn to COc1ccc2c(c1)CCc1c-2nc2cc3c(cc2c1O)OCO3
Solution: > 100 µM (inactive)

Exercise: Let us now turn to CCC(=C/[C@H](C)C/C=C/C(C)=C/[C@@H](C)C(=O)[C@@H](C)[C@H](O)[C@@H](C)CC)/C=C/[C@H]1CC=CC(=O)O1
Solution: < 0.0012 µM (active)

Exercise: Let us now turn to C[n+]1c2ccccc2cc2c(CNC(CCCNC(=N)N)C(=O)O)cccc21 (centres undefined)
Solution: 0.184 µM (active)

Exercise: Let us now turn to C=C(C)C1CC[C@@](C)(O)[C@H](C#N)C1 (some centres undefined)
Solution: > 100 µM (inactive)

This collection of values is drawn from ChEMBL document CHEMBL1201862.
